pKi tested on Acetylcholinesterase (Homo sapiens, UniProt P22303): recorded values
Sequence (P22303 whole entry): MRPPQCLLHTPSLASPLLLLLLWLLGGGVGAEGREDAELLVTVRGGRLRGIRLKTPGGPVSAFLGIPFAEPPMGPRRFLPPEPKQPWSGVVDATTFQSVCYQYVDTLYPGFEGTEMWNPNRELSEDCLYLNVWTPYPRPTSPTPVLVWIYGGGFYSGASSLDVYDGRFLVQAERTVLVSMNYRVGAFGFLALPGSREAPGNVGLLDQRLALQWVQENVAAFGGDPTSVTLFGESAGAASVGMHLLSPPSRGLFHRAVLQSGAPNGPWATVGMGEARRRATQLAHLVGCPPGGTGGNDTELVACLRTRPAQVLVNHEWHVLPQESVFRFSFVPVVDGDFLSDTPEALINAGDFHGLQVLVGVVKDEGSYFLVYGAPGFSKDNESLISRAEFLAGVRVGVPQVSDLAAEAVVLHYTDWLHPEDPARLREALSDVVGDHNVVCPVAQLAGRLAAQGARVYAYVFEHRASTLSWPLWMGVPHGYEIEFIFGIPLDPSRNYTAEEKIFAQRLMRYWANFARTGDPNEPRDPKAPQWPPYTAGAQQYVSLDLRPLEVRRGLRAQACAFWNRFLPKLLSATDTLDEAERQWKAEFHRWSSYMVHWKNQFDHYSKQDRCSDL
Keep it numeric: pKi is minus log10 of the concentration in mol/L.

Item COc1cc2c(cc1OC)C(=O)C(Cc1cccc(CN(C)C)c1)C2 (stereo unspecified) has what recorded pKi? 6.28

Again, but for COc1cc2c(cc1OC)C(=O)/C(=C/c1ccc(CN3CCCC3)cc1)C2 6.70

Again, but for CCN(CC)C(C)c1cccc(OC2Cc3cc(OC)c(OC)cc3C2=O)c1 (stereo unspecified) 6.06

Again, but for CCN(CC)Cc1ccc(OC2Cc3cc(OC)c(OC)cc3C2=O)cc1 (stereo unspecified) 5.87

Again, but for CC(CN1CCN(Cc2ccccc2)CC1)N(C(=O)c1cccc([N+](=O)[O-])c1)c1ccccn1 (stereo unspecified) 7.21

Again, but for CC(C)(C)c1ccc(/C(N)=N/OC(=O)c2cnn(-c3ccc([N+](=O)[O-])cc3)c2C(F)(F)F)cc1 6.28

Again, but for CCN(C)Cc1cccc(/C=C2\Cc3cc(OC)c(OC)cc3C2=O)c1 6.63

Again, but for COc1cc2c(cc1OC)C(=O)C(Cc1cccc(CN3CCCCC3)c1)C2 (stereo unspecified) 7.23

Again, but for O=[N+]([O-])c1ccc(OCC(O)CN2CCCN(c3nc4ccc(Cl)cc4s3)CC2)cc1 (stereo unspecified) 6.58

Again, but for COc1ccc(C(=O)NC2CCN(Cc3c(F)cccc3Cl)CC2)cc1OC 7.26

Again, but for CCN(CC)C(C)c1ccc(OC2Cc3cc(OC)c(OC)cc3C2=O)cc1 (stereo unspecified) 5.88

Again, but for COc1cc2c(cc1OC)C(=O)C(Oc1ccc(C(C)N3CCCCC3)cc1)C2 (stereo unspecified) 6.97

Again, but for COc1cc2c(cc1OC)C(=O)C(Cc1ccc(CN3CCCC3)cc1)C2 (stereo unspecified) 6.11

Again, but for N/C(=N\OC(=O)c1cnn(-c2ccc([N+](=O)[O-])cc2)c1C(F)(F)F)c1ccc(C(F)(F)F)cc1 5.68

Again, but for CCN(CC)Cc1ccc(CC2Cc3cc(OC)c(OC)cc3C2=O)cc1 (stereo unspecified) 5.98

Again, but for CCN(C)Cc1cccc(CC2Cc3cc(OC)c(OC)cc3C2=O)c1 (stereo unspecified) 6.30

Again, but for N/C(=N\OC(=O)c1cnn(-c2ccc([N+](=O)[O-])cc2)c1C(F)(F)F)c1ccc(Cl)cc1 5.63

Again, but for CCN(CC)Cc1cccc(CC2Cc3cc(OC)c(OC)cc3C2=O)c1 (stereo unspecified) 7.66

Again, but for COc1cc2c(cc1OC)C(=O)C(Oc1ccc(C(C)N3CCN(C)CC3)cc1)C2 (stereo unspecified) 6.64

Again, but for O=C(NC1CCN(Cc2ccccc2)CC1)c1ccc2c(c1)OCCCO2 7.02

Again, but for COc1cc2c(cc1OC)C(=O)C(Oc1cccc(CN3CCN(C)CC3)c1)C2 (stereo unspecified) 7.21

Again, but for COc1cc2c(cc1OC)C(=O)C(Cc1cccc(CN3CCCC3)c1)C2 (stereo unspecified) 7.65

Again, but for COc1cc2c(cc1OC)C(=O)C(Oc1cccc(CN(C)C)c1)C2 (stereo unspecified) 6.00

Again, but for COc1cc2c(cc1OC)C(=O)/C(=C/c1cccc(CN3CCCCC3)c1)C2 7.15

Again, but for COc1cc2c(cc1OC)C(=O)/C(=C/c1ccc(CN3CCCCC3)cc1)C2 7.02

Again, but for Cc1c(S(=O)(=O)c2ccc(Cl)cc2)csc1C(=O)NC1CCN(Cc2ccccc2)CC1 7.67

Again, but for CCN(C)Cc1ccc(/C=C2\Cc3cc(OC)c(OC)cc3C2=O)cc1 6.04

Again, but for O=C(Nc1ccc(OC(F)(F)F)cc1)OC1CN(C(c2ccccc2)c2ccccc2)C1 7.64

Again, but for COc1cc2c(cc1OC)C(=O)C(Oc1ccc(CN3CCCCC3)cc1)C2 (stereo unspecified) 6.39

Again, but for O=C(Nc1ccc(OC(F)(F)F)cc1)N1CCCN(CCc2ccccc2)CC1 6.62

Again, but for COc1cc2c(cc1OC)C(=O)C(Cc1ccc(CN3CCCCC3)cc1)C2 (stereo unspecified) 7.13

Again, but for COc1cc2c(cc1OC)C(=O)/C(=C/c1cccc(CN3CCCC3)c1)C2 6.90

Again, but for COc1cc2c(cc1OC)C(=O)C(Oc1cccc(C(C)N(C)C)c1)C2 (stereo unspecified) 6.40

Again, but for COc1cc2c(cc1OC)C(=O)C(Oc1ccc(CN3CCCC3)cc1)C2 (stereo unspecified) 6.59

Again, but for O=C(CC1S/C(=N/c2ccc(C3CCCCC3)cc2)NC1=O)Nc1ccc(OC(F)(F)F)cc1 (stereo unspecified) 6.05

Again, but for COc1cc2c(cc1OC)C(=O)C(Oc1ccc(CN3CCN(C)CC3)cc1)C2 (stereo unspecified) 7.16

Again, but for COc1cc2c(cc1OC)C(=O)C(Oc1cccc(C(C)N3CCCC3)c1)C2 (stereo unspecified) 6.86

Again, but for COc1cc2c(cc1OC)C(=O)C(Oc1cccc(CN3CCOCC3)c1)C2 (stereo unspecified) 6.10

Again, but for COc1cc2c(cc1OC)C(=O)C(Oc1ccc(C(C)N(C)C)cc1)C2 (stereo unspecified) 6.26

Again, but for COc1cc2c(cc1OC)C(=O)C(Oc1cccc(CN3CCCCC3)c1)C2 (stereo unspecified) 6.57

Again, but for COc1cc2c(cc1OC)C(=O)C(Oc1cccc(C(C)N3CCOCC3)c1)C2 (stereo unspecified) 6.93

----------
biological target: Acetylcholinesterase (Homo sapiens)
Label Y when Ki is strictly below 500 nM; otherwise label N.

Could you please tell me whether Ki recorded for COc1cc2c(cc1OC)C(=O)C(Oc1ccc(C(C)N3CCOCC3)cc1)C2 (stereo not given) is less than 500 nM? Y

Again, but for O=c1c(Cl)c(N2CCN(c3ccc(C(F)(F)F)cn3)CC2)cnn1-c1c(Cl)cc(C(F)(F)F)cc1Cl N

Again, but for O=C(CN1CCN(Cc2ccccc2)CC1)Nc1ccc(C(F)(F)F)cc1Cl Y

Again, but for CCN(CC)Cc1ccc(/C=C2\Cc3cc(OC)c(OC)cc3C2=O)cc1 Y

Again, but for CCN(C)Cc1ccc(CC2Cc3cc(OC)c(OC)cc3C2=O)cc1 (stereo not given) N

----------
Molecular target: Acetylcholinesterase (Rattus norvegicus, UniProt P37136)
Sequence (P37136 whole entry): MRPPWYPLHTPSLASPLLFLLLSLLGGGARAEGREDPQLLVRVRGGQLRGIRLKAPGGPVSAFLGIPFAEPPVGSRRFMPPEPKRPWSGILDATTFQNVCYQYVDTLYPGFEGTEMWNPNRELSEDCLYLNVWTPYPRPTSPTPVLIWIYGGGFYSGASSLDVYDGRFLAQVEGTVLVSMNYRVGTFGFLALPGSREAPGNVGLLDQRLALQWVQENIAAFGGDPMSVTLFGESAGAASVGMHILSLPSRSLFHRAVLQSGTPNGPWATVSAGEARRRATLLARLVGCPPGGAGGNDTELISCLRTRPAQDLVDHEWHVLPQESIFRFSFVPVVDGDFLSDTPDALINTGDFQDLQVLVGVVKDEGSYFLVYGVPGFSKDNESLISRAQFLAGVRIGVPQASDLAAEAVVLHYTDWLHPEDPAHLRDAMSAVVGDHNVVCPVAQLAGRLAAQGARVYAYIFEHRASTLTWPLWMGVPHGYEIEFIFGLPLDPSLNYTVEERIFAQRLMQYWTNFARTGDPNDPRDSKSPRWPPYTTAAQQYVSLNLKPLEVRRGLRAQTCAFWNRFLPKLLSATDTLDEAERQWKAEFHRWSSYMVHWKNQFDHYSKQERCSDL
Quantity Measured: IC50 (nM)
Report the value in nM with no unit label.

Item COc1cc2c(cc1OC)C(=O)/C(=C/c1cccc(CN3CCCCC3)c1)C2 has what recorded IC50? 162

Again, but for CCN(CC)Cc1cccc(/C=C2\Cc3cc(OC)c(OC)cc3C2=O)c1 447

Again, but for COc1cc2c(cc1OC)C(=O)/C(=C/c1cccc(CN3CCCC3)c1)C2 234

Again, but for COc1cc2c(cc1OC)C(=O)C(Cc1ccc(CN3CCCCC3)cc1)C2 (configuration not stated) 123

Again, but for COc1cc2c(cc1OC)C(=O)C(Cc1ccc(CN3CCCC3)cc1)C2 (configuration not stated) 155

Again, but for CCN(C)Cc1ccc(/C=C2\Cc3cc(OC)c(OC)cc3C2=O)cc1 263

Again, but for COc1cc2c(cc1OC)C(=O)/C(=C/c1ccc(CN3CCCCC3)cc1)C2 102

----------
pKi tested on UniProtKB P22303: recorded values
Keep it numeric: pKi is minus log10 of the concentration in mol/L.

Item COc1cc2c(cc1OC)C(=O)C(Oc1ccc(CN(C)C)cc1)C2 (stereo not given) has what recorded pKi? 6.68

Again, but for COc1cc2c(cc1OC)C(=O)C(Oc1ccc(C(C)N3CCCC3)cc1)C2 (stereo not given) 6.39

Again, but for COc1cc2c(cc1OC)C(=O)C(Oc1cccc(C(C)N3CCCCC3)c1)C2 (stereo not given) 7.42

Again, but for COc1cc2c(cc1OC)C(=O)C(Oc1ccc(CN3CCOCC3)cc1)C2 (stereo not given) 6.29

Again, but for COc1cc2c(cc1OC)C(=O)/C(=C/c1ccc(CN(C)C)cc1)C2 6.21

Again, but for COc1cc2c(cc1OC)C(=O)/C(=C/c1cccc(CN(C)C)c1)C2 7.21

Again, but for COc1cc2c(cc1OC)C(=O)C(Oc1cccc(C(C)N3CCN(C)CC3)c1)C2 (stereo not given) 7.11

Again, but for CSc1cccc(/N=C2\NC(=O)C(CC(=O)Nc3ccc(F)c(F)c3)S2)c1 (stereo not given) 6.89

Again, but for CCN(CC)Cc1cccc(/C=C2\Cc3cc(OC)c(OC)cc3C2=O)c1 6.63

Again, but for CCN(CC)Cc1cccc(OC2Cc3cc(OC)c(OC)cc3C2=O)c1 (stereo not given) 5.80

Data origin, for the record: ChEMBL document CHEMBL3046949
